The values you see were collected from patent US10344077.

Target: T1, Jo-1 (UniProt P12081)
T1 sequence (looked up): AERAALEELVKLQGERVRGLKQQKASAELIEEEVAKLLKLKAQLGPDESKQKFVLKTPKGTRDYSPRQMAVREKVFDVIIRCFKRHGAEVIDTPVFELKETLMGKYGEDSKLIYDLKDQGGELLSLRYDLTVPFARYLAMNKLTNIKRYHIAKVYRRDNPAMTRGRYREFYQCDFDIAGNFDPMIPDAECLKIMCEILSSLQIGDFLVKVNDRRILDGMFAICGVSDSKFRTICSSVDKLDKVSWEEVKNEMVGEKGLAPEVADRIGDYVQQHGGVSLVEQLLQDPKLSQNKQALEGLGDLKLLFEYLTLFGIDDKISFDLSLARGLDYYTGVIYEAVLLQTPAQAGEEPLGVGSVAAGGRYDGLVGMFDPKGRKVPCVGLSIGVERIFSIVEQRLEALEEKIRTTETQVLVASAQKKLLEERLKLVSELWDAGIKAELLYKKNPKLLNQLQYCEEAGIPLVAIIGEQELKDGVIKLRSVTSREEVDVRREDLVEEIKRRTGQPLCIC
Test: AtheNA, Ab 25 ug/ml
assay endpoint: Athena reading (relative luminescence units)

- binder: "CH235_4A (antibody, from a related filing, V domains shown) VH: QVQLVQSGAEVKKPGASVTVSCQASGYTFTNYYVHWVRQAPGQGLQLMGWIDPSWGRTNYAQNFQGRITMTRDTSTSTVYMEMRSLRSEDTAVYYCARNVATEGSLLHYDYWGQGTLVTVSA VL: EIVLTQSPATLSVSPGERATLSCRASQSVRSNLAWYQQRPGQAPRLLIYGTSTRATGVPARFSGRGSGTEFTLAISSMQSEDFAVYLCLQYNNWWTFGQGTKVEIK"
  measurement: 4
